Test system: PC-9
Assay: Cytotoxicity against human PC-9 cells harboring EGFR mutant assessed as inhibition of cell growth
Assay type: functional, cell-based
Parameter: IC50. Scope: all listed entries.

>  <molecule>
Fc1ccc2ncnc(NCCc3ccccc3Br)c2c1

>  <inequality sign>
=

>  <IC50, nM>
892

$$$$
>  <molecule>
Fc1ccc(-c2ccc(CCNc3ncnc4ccc(F)cc34)cc2)c(F)c1

>  <inequality sign>
=

>  <IC50, nM>
34

$$$$
>  <molecule>
Fc1ccc2ncnc(NCCc3cccc(Br)c3)c2c1

>  <inequality sign>
=

>  <IC50, nM>
685

$$$$
>  <molecule>
Fc1ccc2ncnc(NCCc3ccc(-c4cccnc4)cc3)c2c1

>  <inequality sign>
=

>  <IC50, nM>
1040

$$$$
>  <molecule>
CC(C)(C)c1ccc(-c2ccc(CCNc3ncnc4ccc(F)cc34)cc2)cc1

>  <inequality sign>
=

>  <IC50, nM>
363

$$$$
>  <molecule>
Fc1ccc2ncnc(NCCc3ccc4ccccc4c3)c2c1

>  <inequality sign>
=

>  <IC50, nM>
64

$$$$
>  <molecule>
Fc1ccc(-c2ccc(CCNc3ncnc4ccc(F)cc34)cc2)cc1

>  <inequality sign>
=

>  <IC50, nM>
160

$$$$
>  <molecule>
Fc1ccc2ncnc(NCCc3ccc(-c4ccccc4F)cc3)c2c1

>  <inequality sign>
=

>  <IC50, nM>
66

$$$$
>  <molecule>
Fc1ccc2ncnc(NCCc3ccc(-c4ccncc4)cc3)c2c1

>  <inequality sign>
=

>  <IC50, nM>
408

$$$$
>  <molecule>
COc1cccc(-c2ccc(CCNc3ncnc4ccc(F)cc34)cc2)c1

>  <inequality sign>
=

>  <IC50, nM>
67

$$$$
>  <molecule>
Fc1ccc2ncnc(NCCc3ccc(-c4ccccc4)cc3)c2c1

>  <inequality sign>
=

>  <IC50, nM>
77

$$$$
>  <molecule>
COc1ccc(-c2ccc(CCNc3ncnc4ccc(F)cc34)cc2)cc1

>  <inequality sign>
=

>  <IC50, nM>
69

$$$$
>  <molecule>
Fc1ccc2ncnc(NCCc3ccc(-c4ccc5oc6ccccc6c5c4)cc3)c2c1

>  <inequality sign>
=

>  <IC50, nM>
79

$$$$
>  <molecule>
Fc1ccc2ncnc(NCCc3ccc(I)cc3)c2c1

>  <inequality sign>
=

>  <IC50, nM>
261

$$$$
>  <molecule>
Fc1ccc2ncnc(NCCc3cccc(-c4ccccc4)c3)c2c1

>  <inequality sign>
=

>  <IC50, nM>
668

$$$$
>  <molecule>
CN(C)C/C=C/C(=O)Nc1cc2c(Nc3ccc(F)c(Cl)c3)ncnc2cc1O[C@H]1CCOC1 [AFATINIB]

>  <inequality sign>
=

>  <IC50, nM>
5

$$$$
>  <molecule>
Fc1ccc2ncnc(NCCc3ccc(-c4ccc(Oc5ccccc5)cc4)cc3)c2c1

>  <inequality sign>
=

>  <IC50, nM>
280

$$$$
>  <molecule>
Fc1ccc2ncnc(NCCc3ccc(OCc4ccccc4)cc3)c2c1

>  <inequality sign>
=

>  <IC50, nM>
30

$$$$
>  <molecule>
Fc1ccc2ncnc(NCCc3ccc(-c4ccc5c(c4)OCCO5)cc3)c2c1

>  <inequality sign>
=

>  <IC50, nM>
69

$$$$
>  <molecule>
Fc1ccc2ncnc(NCCc3ccc(-c4ccco4)cc3)c2c1

>  <inequality sign>
=

>  <IC50, nM>
636

$$$$
>  <molecule>
COc1ccc(Oc2ccc(CCNc3ncnc4ccc(F)cc34)cc2)cc1

>  <inequality sign>
=

>  <IC50, nM>
7

$$$$
>  <molecule>
CC(C)(C)c1ccc(CCNc2ncnc3ccc(F)cc23)cc1

>  <inequality sign>
=

>  <IC50, nM>
45

$$$$
>  <molecule>
Cc1ccc(-c2ccc(CCNc3ncnc4ccc(F)cc34)cc2)cc1

>  <inequality sign>
=

>  <IC50, nM>
49

$$$$
>  <molecule>
Fc1ccc2ncnc(NCCc3ccc(-c4ccoc4)cc3)c2c1

>  <inequality sign>
=

>  <IC50, nM>
288

$$$$
>  <molecule>
CC(C)(C)Oc1ccc(-c2ccc(CCNc3ncnc4ccc(F)cc34)cc2)cc1

>  <inequality sign>
=

>  <IC50, nM>
1700

$$$$
>  <molecule>
Fc1ccc2ncnc(NCCc3ccc(Oc4ccccc4)cc3)c2c1

>  <inequality sign>
=

>  <IC50, nM>
14

$$$$
>  <molecule>
Fc1ccc2ncnc(Nc3ccc4cc(Br)ccc4c3)c2c1

>  <inequality sign>
>

>  <IC50, nM>
5000

$$$$
>  <molecule>
Fc1ccc(Oc2ccc(CCNc3ncnc4ccc(F)cc34)cc2)cc1

>  <inequality sign>
=

>  <IC50, nM>
4

$$$$
>  <molecule>
COc1ccccc1-c1ccc(CCNc2ncnc3ccc(F)cc23)cc1

>  <inequality sign>
=

>  <IC50, nM>
105

$$$$
>  <molecule>
Fc1ccc2ncnc(NC3CCc4cc(Br)ccc4C3)c2c1 (configuration not stated)

>  <inequality sign>
=

>  <IC50, nM>
718

$$$$
>  <molecule>
Fc1ccc2ncnc(NCCc3ccc(-c4cccc(F)c4F)cc3)c2c1

>  <inequality sign>
=

>  <IC50, nM>
76

$$$$
>  <molecule>
Fc1ccc2ncnc(NCCc3ccc(-c4ccc(F)c(F)c4)cc3)c2c1

>  <inequality sign>
=

>  <IC50, nM>
138

$$$$
